Structures can show the parent of a compound that is named as a salt.
Note to self: melting point under 200 °C means criterion met, ties and anything higher get criterion not met.

| COMPOUND | CATEGORY |
| --- | --- |
| COc1ccc(F)cc1-c1cc(NC(=O)c2cc(=O)[nH]c3ccccc23)ncn1 | criterion not met |
| COc1ccc(F)cc1-c1cc(NC(=O)C2CCC(=O)NC2)ncn1 (stereo not drawn) | criterion not met |
| COc1ccc(F)cc1-c1cc(NC(=O)C2CCCNC2=O)ncn1 (stereo not drawn) | criterion met |
| COc1ccc(F)cc1-c1cc(NC(=O)C2CNC(=O)C2)ncn1 (stereo not drawn) | criterion not met |
| COc1ccc(F)cc1-c1cc(NC(=O)C2CCCCN2)ncn1 (stereo not drawn) (as salt: TFA) | criterion met |
| COc1ccc(F)cc1-c1cc(NC(=O)C2CCOCC2)ncn1 | criterion met |
